Provenance of the data: patent US20250270246A1

MIC overview
Tested on: E. faecium JMI-990536
Assay: MIC by broth microdilution (CLSI)
Assay type: cell-based
Conditions: Enterococcus faecium, JMI990536, 24 h, read-out: MIC E. faecium JMI-990536
Counter-ions that a name gives are not always drawn.
property.name: MIC (µg/mL)

molecule	tested.target	u	lt.gt.eq	recorded.value
CC(C)C[C@@H]1CCO[C@@H]2[C@H](CN[C@@H]2C(=O)N[C@H]2[C@H]3O[C@H](S[C@H](c4cn(-c5cccc(Cl)c5)nn4)C/C=C\[C@H]2C)[C@H](O)[C@@H](O)[C@H]3O)C1 [FSA1609015, formate salt]	E. faecium JMI-990536	µg/mL	=	0.5
C#C[C@@H]1C/C=C\C[C@@H](NC(=O)[C@H]2NC[C@@H]3C[C@H](CC(C)C)CCO[C@H]32)[C@H]2O[C@H](S1)[C@H](O)[C@@H](O)[C@H]2O [FSA1607077, formate salt]	E. faecium JMI-990536	µg/mL	=	2
CC(C)C[C@@H]1CCO[C@@H]2[C@H](CN[C@@H]2C(=O)N[C@H]2[C@H]3O[C@H](SC[C@H](F)C/C=C\[C@H]2C)[C@H](O)[C@@H](O)[C@H]3O)C1 [FSA1609033, formate salt]	E. faecium JMI-990536	µg/mL	≤	0.06
CC(C)C[C@@H]1CCO[C@@H]2[C@H](CN[C@@H]2C(=O)N[C@@H]2C/C=C\C[C@@H](c3cn(-c4ccc(F)cc4)nn3)S[C@H]3O[C@H]2[C@H](O)[C@H](O)[C@H]3O)C1 [FSA1608021, formate salt]	E. faecium JMI-990536	µg/mL	=	0.5
CC(=O)OC[C@@H]1C/C=C\C[C@@H](NC(=O)[C@H]2NC[C@@H]3C[C@H](CC(C)C)CCO[C@H]32)[C@H]2O[C@H](S1)[C@H](O)[C@@H](O)[C@H]2O [FSA1607032, acetate formate salt]	E. faecium JMI-990536	µg/mL	=	2
